Assay Target: G6PDH-B (Pseudomonas putida, UniProt Q88FP7)
Construct: gene zwfB
Sequence (Q88FP7 1-501): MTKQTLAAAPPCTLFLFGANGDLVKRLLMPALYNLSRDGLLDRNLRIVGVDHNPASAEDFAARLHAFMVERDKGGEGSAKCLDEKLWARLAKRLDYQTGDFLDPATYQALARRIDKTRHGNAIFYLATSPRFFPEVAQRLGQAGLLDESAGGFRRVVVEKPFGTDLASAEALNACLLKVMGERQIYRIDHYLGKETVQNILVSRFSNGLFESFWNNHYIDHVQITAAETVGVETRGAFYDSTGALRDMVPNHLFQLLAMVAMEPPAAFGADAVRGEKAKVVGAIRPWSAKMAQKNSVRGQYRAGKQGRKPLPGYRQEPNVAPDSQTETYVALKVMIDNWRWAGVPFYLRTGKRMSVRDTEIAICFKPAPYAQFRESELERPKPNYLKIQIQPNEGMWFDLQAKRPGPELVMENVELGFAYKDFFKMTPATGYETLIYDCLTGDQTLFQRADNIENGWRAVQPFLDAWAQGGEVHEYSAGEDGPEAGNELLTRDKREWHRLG
Assay Explanation: initial rates, NAD(P)H formation at […] nm, global fit (DYNAFIT), rapid-equilibrium random-ordered model
Assay type: biochemical
Measurement Conditions: buffer A (50 mM Tris-HCl, 5 mM NaCl, 5 mM MgCl2, 5% glycerol), pH 8.0, 30°C; G6P varied; dissociation constant of NADP+ from free enzyme; read-out: NADP^+ / Ki

[
  {
    "Compound Smiles": "NC(=O)c1ccc[n+]([C@@H]2O[C@H](COP(=O)(O)OP(=O)(O)OC[C@H]3O[C@@H](n4cnc5c(N)ncnc54)[C@H](OP(=O)(O)O)[C@@H]3O)[C@@H](O)[C@H]2O)c1",
    "Assay Target": "G6PDH-B (Pseudomonas putida, UniProt Q88FP7)",
    "Kd (µM)": 790
  }
]
